- Tested on: HT-29
- MEASUREMENT NOTES: Cytotoxicity against human HT-29 cells assessed as cell viability at 30 uM after 48 hrs under hypoxic conditions by MTT assay (reference value: 100%)
- Format: functional
- CONDITION CONTEXT: Homo sapiens, HT-29, 48 h; read-out: Activity
Listed below: viability at 30 µM values for each entry.
RECORDED METRIC: viability at 30 µM

SMILES RECORD: Nc1cc(S(N)(=O)=O)cc([N+](=O)[O-])c1O
RESULT: 108%

SMILES RECORD: NS(=O)(=O)c1cc(NC(=O)Nc2c(F)c(F)c(F)c(F)c2F)c(O)c([N+](=O)[O-])c1
RESULT: 75.6%

SMILES RECORD: CC(=O)OC[C@@H]1O[C@@H](OC(C)=O)[C@@H](NC(=O)Nc2cc(S(N)(=O)=O)cc([N+](=O)[O-])c2O)[C@H](OC(C)=O)[C@H]1OC(C)=O
RESULT: 95.6%

SMILES RECORD: Cc1cc(C)[n+](-c2cc(S(N)(=O)=O)cc([N+](=O)[O-])c2O)c(C)c1.[O-][Cl+3]([O-])([O-])[O-]
RESULT: 72.2%

SMILES RECORD: NS(=O)(=O)c1cc(NC(=O)Nc2ccc(F)cc2)c(O)c([N+](=O)[O-])c1
RESULT: 90.8%

SMILES RECORD: NS(=O)(=O)c1cc(NC(=O)NCCc2ccccc2)c(O)c([N+](=O)[O-])c1
RESULT: 76.7%

SMILES RECORD: NS(=O)(=O)c1ccc(NC(=O)Nc2ccc(F)cc2)cc1
RESULT: 85.3%

SMILES RECORD: NS(=O)(=O)c1cc(NC(=O)Nc2cc(C(F)(F)F)cc(C(F)(F)F)c2)c(O)c([N+](=O)[O-])c1
RESULT: 98.6%

SMILES RECORD: NS(=O)(=O)c1cc(NC(=O)Nc2ccc3c(c2)OCO3)c(O)c([N+](=O)[O-])c1
RESULT: 28.3%

SMILES RECORD: NS(=O)(=O)c1cc(NC(=O)c2ccc(F)cc2)c(OC(=O)c2ccc(F)cc2)c([N+](=O)[O-])c1
RESULT: 96.6%

###

pKi: −log10 of the molar value.
Let's go through some pKi measurements on Carbonic anhydrase 12 (Homo sapiens, UniProt O43570) together.
Sequence (O43570 whole entry): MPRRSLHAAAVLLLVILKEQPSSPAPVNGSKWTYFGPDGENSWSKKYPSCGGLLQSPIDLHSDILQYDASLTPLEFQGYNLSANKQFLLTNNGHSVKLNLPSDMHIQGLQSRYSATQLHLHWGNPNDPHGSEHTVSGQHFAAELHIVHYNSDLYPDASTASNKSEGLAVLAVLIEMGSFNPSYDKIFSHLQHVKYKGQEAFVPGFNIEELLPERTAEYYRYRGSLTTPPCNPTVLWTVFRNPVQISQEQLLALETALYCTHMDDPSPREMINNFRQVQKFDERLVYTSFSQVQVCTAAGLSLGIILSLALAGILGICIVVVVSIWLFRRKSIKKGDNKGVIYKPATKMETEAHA

COMPOUND: Cc1cc(C)[n+](-c2cc(S(N)(=O)=O)cc([N+](=O)[O-])c2O)c(C)c1.[O-][Cl+3]([O-])([O-])[O-]
ASSAY SYSTEM: Carbonic anhydrase 12 (Homo sapiens, UniProt O43570)
pKi: 6.66
//
COMPOUND: NS(=O)(=O)c1cc(NC(=O)NCCc2ccccc2)c(O)c([N+](=O)[O-])c1
ASSAY SYSTEM: Carbonic anhydrase 12 (Homo sapiens, UniProt O43570)
pKi: 6.51
//
COMPOUND: NS(=O)(=O)c1cc(NC(=O)Nc2ccc(C(F)(F)F)cc2)c(O)c([N+](=O)[O-])c1
ASSAY SYSTEM: Carbonic anhydrase 12 (Homo sapiens, UniProt O43570)
pKi: 6.02
//
COMPOUND: NS(=O)(=O)c1cc([N+](=O)[O-])c(OC(=O)c2ccccc2)c([N+](=O)[O-])c1
ASSAY SYSTEM: Carbonic anhydrase 12 (Homo sapiens, UniProt O43570)
pKi: 7.15
//
COMPOUND: Nc1cc(S(N)(=O)=O)cc([N+](=O)[O-])c1O
ASSAY SYSTEM: Carbonic anhydrase 12 (Homo sapiens, UniProt O43570)
pKi: 6.70
//
COMPOUND: NS(=O)(=O)c1cc(O)c(O)c([N+](=O)[O-])c1
ASSAY SYSTEM: Carbonic anhydrase 12 (Homo sapiens, UniProt O43570)
pKi: 7.05
//
COMPOUND: NS(=O)(=O)c1cc(NC(=O)Nc2c(F)c(F)c(F)c(F)c2F)c(O)c([N+](=O)[O-])c1
ASSAY SYSTEM: Carbonic anhydrase 12 (Homo sapiens, UniProt O43570)
pKi: 7.10
//
COMPOUND: NS(=O)(=O)c1cc(NC(=O)Nc2ccc3c(c2)OCO3)c(O)c([N+](=O)[O-])c1
ASSAY SYSTEM: Carbonic anhydrase 12 (Homo sapiens, UniProt O43570)
pKi: 6.60
//
COMPOUND: NS(=O)(=O)c1cc(NC(=O)c2ccccc2)c(OC(=O)c2ccccc2)c([N+](=O)[O-])c1
ASSAY SYSTEM: Carbonic anhydrase 12 (Homo sapiens, UniProt O43570)
pKi: 6.52
//
COMPOUND: NS(=O)(=O)c1cc(NC(=O)Nc2ccc(F)cc2)c(O)c([N+](=O)[O-])c1
ASSAY SYSTEM: Carbonic anhydrase 12 (Homo sapiens, UniProt O43570)
pKi: 6.30
//
COMPOUND: NS(=O)(=O)c1cc(NC(=O)c2ccc(F)cc2)c(OC(=O)c2ccc(F)cc2)c([N+](=O)[O-])c1
ASSAY SYSTEM: Carbonic anhydrase 12 (Homo sapiens, UniProt O43570)
pKi: 6.68
//
COMPOUND: NS(=O)(=O)c1ccc(O)c([N+](=O)[O-])c1
ASSAY SYSTEM: Carbonic anhydrase 12 (Homo sapiens, UniProt O43570)
pKi: 6.80
//
COMPOUND: NS(=O)(=O)c1cc(NC(=O)Nc2cc(C(F)(F)F)cc(C(F)(F)F)c2)c(O)c([N+](=O)[O-])c1
ASSAY SYSTEM: Carbonic anhydrase 12 (Homo sapiens, UniProt O43570)
pKi: 6.34
//
COMPOUND: Cc1cc(C)cc(NC(=O)Nc2cc(S(N)(=O)=O)cc([N+](=O)[O-])c2O)c1
ASSAY SYSTEM: Carbonic anhydrase 12 (Homo sapiens, UniProt O43570)
pKi: 6.21
//
COMPOUND: NS(=O)(=O)c1cc(NC(=O)N[C@@H]2C(O)O[C@@H](CO)[C@H](O)[C@H]2O)c(O)c([N+](=O)[O-])c1 (stereo partly specified)
ASSAY SYSTEM: Carbonic anhydrase 12 (Homo sapiens, UniProt O43570)
pKi: 6.80
//
COMPOUND: COc1cccc(NC(=O)Nc2cc(S(N)(=O)=O)cc([N+](=O)[O-])c2O)c1
ASSAY SYSTEM: Carbonic anhydrase 12 (Homo sapiens, UniProt O43570)
pKi: 6.28
